Test system: MS2 coat protein
test.description: apparent KD of MS2 coat protein; higher = weaker reporter binding
condition.parameters: Eterna round: R107; input ligand: arginine 13.2 mM

[
  {
    "chain.sequence": "GGACUAACCAGAAGGAGCGGCACGCAGAAACUGCAAAUUCCUCCACACGAGGAUCACCCGUGUCAGGUAGGUCGCUGGUUAGUCG",
    "apparent KD of MS2 coat protein / nM": 33.6
  },
  {
    "chain.sequence": "ACACAUGAGGAUCACCCAUGUUCAAUAGAUACCAGUGAUACGGUGCACCCUUGGCAGCUGUUGCUGAGUGAUGGUUCCCUCGGAA [#22 SameState-TheophyllineA]",
    "apparent KD of MS2 coat protein / nM": 32.9
  },
  {
    "chain.sequence": "UGAUGGUGCGGAAGGAGCGUGUAAGAACAAGAACAUGAGGAUCACCCAUGUAUUAAUUUAACACAGGUAGGUCGCCGUGUUAUUG [11.K]",
    "apparent KD of MS2 coat protein / nM": 29.6
  },
  {
    "chain.sequence": "GGGAUAUAGGCGGCCGCCACUGAUUUUCAUAUAUAUAUAACAUGAGGAUCACCCAUGUAGAUAUACAGGACCGGGCCUAUAUUUU [aaaD]",
    "apparent KD of MS2 coat protein / nM": 14.8
  }
]

---

System: MS2 coat protein
test.description: apparent KD of MS2 coat protein; higher = weaker reporter binding
condition.parameters: Eterna round: R107; input ligand: tryptophan 2.4 mM
The following sequences are listed with their measured apparent KD of MS2 coat protein values.
value.kind: apparent KD of MS2 coat protein

[
  {
    "chain.sequence": "UUGGUUAUGCGAAGGAGCGGGAAAUAUAUAUAUAUAAUCCUAACAUGAGGAUCACCCAUGUCCCAGGUAGGUCGCGCAUAGUUGG [12.I]",
    "meas.value": "69.1 nM"
  },
  {
    "chain.sequence": "UUUACAUGAGGAUCACCCAUGUGCCAUGAUACCAGACAUGAAAAUGUCCCUUGGCAGCAUGAAUGAUUCAUAGGAUAAUUAUGGG [Obrany]",
    "meas.value": "80.9 nM"
  },
  {
    "chain.sequence": "AAUCUGUCGGGUGAUACCAGCCUCGGCACAUCUCGUGCCGAACAUGAGGAUCACCCAUGUGGCCCUUGGCAGCACAUGACAAAUC [Usreerso]",
    "meas.value": "520 nM"
  }
]

---

Test system: MS2 coat protein
test.description: apparent KD of MS2 coat protein; designed switch direction (-1 OFF switch, 1 ON switch): -1; higher = weaker reporter binding
condition.parameters: input ligand: none

[
  {
    "chain.sequence": "AGAUGUUAAGAGGAUAUCAGCCGAAACCGGCAGUGAGAAGGCUUGACAUGAGGAUCACCCAUGUUUUGCGGUAA [Intebiabe] (Eterna round: R97, puzzle: Exclusion 6)",
    "apparent KD of MS2 coat protein / nM": 35.6
  },
  {
    "chain.sequence": "GGAGAGUGAGGAUAUACAUGAGGAUCACCCAUGUAUAUCAAAUAAAAUAAAUUCUCAUGUAGAAGGCGCUUUUC [Alacar 3rd Attempt] (Eterna round: R97, puzzle: Exclusion 3)",
    "apparent KD of MS2 coat protein / nM": 14.4
  },
  {
    "chain.sequence": "CUAGCGAAUGUAGGAUAUCGGACUGUUUCAGUCUGAGAAGGACAUGAGGAUCACCCAUGUGAAGCUACGUGAGUAGCACGCUAG [JL ENG1 3.86] (Eterna round: R96, puzzle: Exclusion NG 1)",
    "apparent KD of MS2 coat protein / nM": 23.2
  }
]
